Tested on: Aspergillus niger
ASSAY_INFO: Inhibition of Aspergillus niger amyloglucosidase using p-nitrophenyl glycoside as substrate assessed as release of p-nitrophenol at 1000 uM by spectrometric analysis relative to control
Each entry gets No if its inhibition stays under 6%, and Yes if its inhibition is 6% or above.

| COMPOUND | TGT | CLASS |
| --- | --- | --- |
| O[C@H]1[C@H]2[C@H](O)C[C@@H](F)CN2C[C@H]1O | Aspergillus niger | Yes |
| O[C@@H]1[C@@H]2[C@@H](O)C[C@H](F)CN2C[C@@H]1O | Aspergillus niger | Yes |
| O[C@@H]1[C@@H]2[C@@H](O)CC(F)(F)CN2C[C@@H]1O | Aspergillus niger | Yes |
| O[C@@H]1[C@@H]2[C@H](O)C[C@H](F)CN2C[C@@H]1O | Aspergillus niger | Yes |
| O[C@H]1[C@H]2[C@H](O)CC(F)(F)CN2C[C@H]1O | Aspergillus niger | No |
| O[C@H]1[C@H]2[C@@H](O)CCCN2C[C@H]1O | Aspergillus niger | No |
| O[C@H]1[C@H]2[C@@H](O)C[C@@H](F)CN2C[C@H]1O | Aspergillus niger | No |
| O[C@@H]1[C@@H]2[C@@H](O)CCCN2C[C@@H]1O | Aspergillus niger | Yes |
| O[C@@H]1[C@@H]2[C@@H](O)C[C@@H](F)CN2C[C@@H]1O | Aspergillus niger | No |
| O[C@@H]1[C@@H]2[C@H](O)CC(F)(F)CN2C[C@@H]1O | Aspergillus niger | No |
| O[C@H]1[C@H]2[C@@H](O)C[C@H](F)CN2C[C@H]1O | Aspergillus niger | No |
| O[C@H]1[C@H]2[C@H](O)CCCN2C[C@H]1O [TRIDOLGOSIR] | Aspergillus niger | Yes |
| O[C@H]1[C@H]2[C@@H](O)CC(F)(F)CN2C[C@H]1O | Aspergillus niger | No |
| O[C@@H]1[C@@H]2[C@H](O)CCCN2C[C@@H]1O | Aspergillus niger | Yes |
| O[C@@H]1[C@@H]2[C@H](O)C[C@@H](F)CN2C[C@@H]1O | Aspergillus niger | Yes |
| O[C@H]1[C@H]2[C@H](O)C[C@H](F)CN2C[C@H]1O | Aspergillus niger | Yes |

Reference for the values: ChEMBL document CHEMBL6096649
